# Tested on: MCF7
# ASSAY SUMMARY: Antiproliferative activity against human MCF7 cells assessed as reduction in cell viability by MTT assay
# Type: functional, cell-based
Threshold check on IC50: strictly below 0.1 µM is criterion met; on or above 0.1 µM is criterion not met.

>  <COMPOUND STRING>
CNc1ccc2c(cc1=O)[C@@H](NC(=O)CCC(=O)OC/C=C/CO[N+](=O)[O-])CCc1cc(OC)c(OC)c(OC)c1-2

>  <LABEL VALUE>
criterion not met

$$$$
>  <COMPOUND STRING>
CNc1ccc2c(cc1=O)[C@@H](NC(=O)CCC(=O)OCCCCCCO[N+](=O)[O-])CCc1cc(OC)c(OC)c(OC)c1-2

>  <LABEL VALUE>
criterion met

$$$$
>  <COMPOUND STRING>
CNc1ccc2c(cc1=O)[C@@H](NC(=O)CCC(=O)OCCCCO[N+](=O)[O-])CCc1cc(OC)c(OC)c(OC)c1-2

>  <LABEL VALUE>
criterion met

$$$$
>  <COMPOUND STRING>
CNc1ccc2c(cc1=O)[C@@H](NC(=O)CCC(=O)OCCCO[N+](=O)[O-])CCc1cc(OC)c(OC)c(OC)c1-2

>  <LABEL VALUE>
criterion not met

$$$$

* * *

# TESTED ON: ATP-dependent translocase ABCB1 (Homo sapiens, UniProt P08183)
# Sequence (P08183 whole entry): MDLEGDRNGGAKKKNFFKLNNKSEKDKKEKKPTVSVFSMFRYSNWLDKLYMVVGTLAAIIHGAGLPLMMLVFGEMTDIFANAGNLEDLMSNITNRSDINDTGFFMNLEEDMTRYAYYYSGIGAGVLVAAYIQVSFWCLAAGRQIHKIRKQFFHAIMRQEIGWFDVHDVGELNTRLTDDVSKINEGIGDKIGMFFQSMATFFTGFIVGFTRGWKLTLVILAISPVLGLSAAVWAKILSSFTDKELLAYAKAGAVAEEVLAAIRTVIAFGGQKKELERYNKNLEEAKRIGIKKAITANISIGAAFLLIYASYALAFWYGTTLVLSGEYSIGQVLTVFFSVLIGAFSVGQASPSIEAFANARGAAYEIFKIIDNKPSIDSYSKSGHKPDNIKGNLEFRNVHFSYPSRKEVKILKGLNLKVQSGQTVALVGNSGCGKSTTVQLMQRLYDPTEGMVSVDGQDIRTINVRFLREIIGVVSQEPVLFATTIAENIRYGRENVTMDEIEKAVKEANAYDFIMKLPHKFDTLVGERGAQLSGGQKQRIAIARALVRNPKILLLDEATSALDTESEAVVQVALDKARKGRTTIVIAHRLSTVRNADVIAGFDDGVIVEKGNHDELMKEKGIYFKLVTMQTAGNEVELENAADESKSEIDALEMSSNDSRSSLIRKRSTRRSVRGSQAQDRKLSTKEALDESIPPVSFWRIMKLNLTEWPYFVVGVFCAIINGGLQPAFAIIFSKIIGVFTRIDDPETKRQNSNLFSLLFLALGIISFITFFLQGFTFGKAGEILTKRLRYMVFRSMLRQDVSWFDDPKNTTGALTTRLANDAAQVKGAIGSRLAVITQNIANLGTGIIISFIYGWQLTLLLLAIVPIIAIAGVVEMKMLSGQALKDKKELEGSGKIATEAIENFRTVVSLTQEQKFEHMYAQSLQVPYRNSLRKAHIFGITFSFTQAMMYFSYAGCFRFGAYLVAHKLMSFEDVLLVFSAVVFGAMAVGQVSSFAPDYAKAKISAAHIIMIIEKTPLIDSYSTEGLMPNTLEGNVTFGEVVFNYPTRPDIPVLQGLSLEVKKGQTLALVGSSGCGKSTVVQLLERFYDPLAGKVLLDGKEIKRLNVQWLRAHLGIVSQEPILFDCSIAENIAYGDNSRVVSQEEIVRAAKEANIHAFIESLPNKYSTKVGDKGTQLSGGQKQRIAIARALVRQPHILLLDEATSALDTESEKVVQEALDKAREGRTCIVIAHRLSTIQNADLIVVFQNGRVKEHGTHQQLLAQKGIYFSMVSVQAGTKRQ
# ASSAY SUMMARY: Induction of P-gp in human LS180 cells assessed as […] in intracellular accumulation of Rh123 at 100 nM using Rho123 as substrate preincubated for 48 hrs followed by addition of Rh123 and measured after 90 mins by fluorescence based assay relative to control
# Type: cell-based
# ASSAY CONTEXT: ls180, 48 h preincubation, then 1.5 h with Rh123, 0.1 µM
PARAMETER MEASURED: Activity (%)

>  <COMPOUND STRING>
COc1cc2c(c(OC)c1OC)-c1ccc(N3CCN(C(=O)OC(C)(C)C)CC3)c(=O)cc1[C@@H](NC(C)=O)CC2

>  <PARAMETER MEASURED>
Activity

>  <UNIT NAME>
%

>  <EXPERIMENTAL RESULT>
90.94

$$$$
>  <COMPOUND STRING>
COc1cc2c(c(OC)c1OC)-c1ccc(N3CCC(N)CC3)c(=O)cc1[C@@H](NC(C)=O)CC2

>  <PARAMETER MEASURED>
Activity

>  <UNIT NAME>
%

>  <EXPERIMENTAL RESULT>
102.04

$$$$
>  <COMPOUND STRING>
COc1cc2c(c(OC)c1OC)-c1ccc(N3CCCCC3)c(=O)cc1[C@@H](NC(C)=O)CC2

>  <PARAMETER MEASURED>
Activity

>  <UNIT NAME>
%

>  <EXPERIMENTAL RESULT>
119.01

$$$$
>  <COMPOUND STRING>
COc1cc2c(c(OC)c1OC)-c1ccc(N3CCNCC3)c(=O)cc1[C@@H](NC(C)=O)CC2

>  <PARAMETER MEASURED>
Activity

>  <UNIT NAME>
%

>  <EXPERIMENTAL RESULT>
95.52

$$$$
>  <COMPOUND STRING>
COc1cc2c(c(OC)c1OC)-c1ccc(OC)c(=O)cc1[C@@H](NC(C)=O)CC2

>  <PARAMETER MEASURED>
Activity

>  <UNIT NAME>
%

>  <EXPERIMENTAL RESULT>
62.91

$$$$
>  <COMPOUND STRING>
CCN(CC)c1ccc2c(cc1=O)[C@@H](NC(C)=O)CCc1cc(OC)c(OC)c(OC)c1-2

>  <PARAMETER MEASURED>
Activity

>  <UNIT NAME>
%

>  <EXPERIMENTAL RESULT>
95.38

$$$$
>  <COMPOUND STRING>
CCOC(=O)C1CCN(c2ccc3c(cc2=O)[C@@H](NC(C)=O)CCc2cc(OC)c(OC)c(OC)c2-3)CC1

>  <PARAMETER MEASURED>
Activity

>  <UNIT NAME>
%

>  <EXPERIMENTAL RESULT>
95.49

$$$$
>  <COMPOUND STRING>
COc1cc2c(c(OC)c1OC)-c1ccc(N3CCCC3)c(=O)cc1[C@@H](NC(C)=O)CC2

>  <PARAMETER MEASURED>
Activity

>  <UNIT NAME>
%

>  <EXPERIMENTAL RESULT>
107.12

$$$$

* * *

# System: A549
# ASSAY SUMMARY: Antiproliferative activity against human A549 cells assessed as reduction in cell viability incubated for 24 hrs by SRB assay
# Format: functional, cell-based
# ASSAY CONTEXT: A549, 24 h

>  <COMPOUND STRING>
COc1cc2c(c(OC)c1OC)-c1ccc(SC)c(=O)cc1[C@@H](NC(=O)CC[C@H](NC(=O)c1ccc(NCc3cnc4nc(N)nc(O)c4n3)cc1)C(=O)O)CC2

>  <IC50 (nM)>
4960

$$$$
>  <COMPOUND STRING>
CC/C=C\C/C=C\C/C=C\C/C=C\C/C=C\C/C=C\CCC(=O)N[C@H]1CCc2cc(OC)c(OC)c(OC)c2-c2ccc(SC)c(=O)cc21

>  <IC50 (nM)>
917

$$$$
>  <COMPOUND STRING>
COc1cccc2c1C(=O)c1c(O)c3c(c(O)c1C2=O)C[C@@](O)(C(=O)CO)C[C@@H]3O[C@H]1C[C@H](N)[C@H](O)[C@H](C)O1

>  <IC50 (nM)>
14.7

$$$$
